This listing pairs compounds with measured TGI.
# System: SK-MEL-28 melanoma
# EXPERIMENTAL DETAILS: NCI tumour cell line growth inhibition, 48 h

>  <COMPOUND>
CS(=O)(=O)OCCN(CCOS(C)(=O)=O)c1ccc(C=Nc2cccc(Cl)c2)cc1

>  <MODIFIER SIGN>
>

>  <TGI (µM)>
30.4

$$$$
>  <COMPOUND>
O=C1CC2CC3OC3[C@H]3c4cc5c(cc4C(=O)N1C23)OCO5 (some centres undefined)

>  <MODIFIER SIGN>
>

>  <TGI (µM)>
100

$$$$
>  <COMPOUND>
Cc1ccccc1OC(C)C(=O)NN1C(=O)CSC1c1ccc(Cl)cc1 (centres undefined)

>  <MODIFIER SIGN>
>

>  <TGI (µM)>
100

$$$$
>  <COMPOUND>
Cc1c2ccncc2cc2c1[nH]c1ccccc12

>  <MODIFIER SIGN>
=

>  <TGI (µM)>
5.91

$$$$
>  <COMPOUND>
CC(=O)c1ccc2c(c1)C1C=CCC1[C@H](c1cc3c(cc1Br)OCO3)N2 (some centres undefined)

>  <MODIFIER SIGN>
=

>  <TGI (µM)>
6.56

$$$$
>  <COMPOUND>
CCCNC(=O)C1C(=O)C(=O)N(CCC)C1=O (centres undefined)

>  <MODIFIER SIGN>
>

>  <TGI (µM)>
100

$$$$
>  <COMPOUND>
O=C(Nc1cc(C(F)(F)F)ccc1Cl)c1ccc(NC2=C(Cl)C(=O)N(Cc3ccccc3)C2=O)cc1

>  <MODIFIER SIGN>
=

>  <TGI (µM)>
63.5

$$$$
>  <COMPOUND>
CCN1CCC(O)(c2ccc(Oc3ccc(F)cc3)cc2)C(C(=O)c2ccc(Oc3ccc(F)cc3)cc2)C1 (centres undefined)

>  <MODIFIER SIGN>
=

>  <TGI (µM)>
30.5

$$$$
>  <COMPOUND>
O=C(OC1C2OC(=O)c3cc(O)c(O)c(O)c3Oc3cc4c(c(O)c3O)-c3c(cc(O)c(O)c3O)C(=O)OCC3OC(O)C(OC(=O)c5cc(O)c(O)c(O)c5Oc5cc6c(c(O)c5O)-c5c(cc(O)c(O)c5O)C(=O)OC1C(COC6=O)OC2O)C(OC(=O)c1cc(O)c(O)c(O)c1)C3OC4=O)c1cc(O)c(O)c(O)c1 (centres undefined)

>  <MODIFIER SIGN>
>

>  <TGI (µM)>
100

$$$$
